Conditions: in acetonitrile, 298.15 K
Measured parameter: solubility (mole fraction)
Response field accepts a number only; no unit should be typed.

-- ask Suppose we examine the compound CC(=O)c1c(C)cc(C(C)(C)C)cc1C ; what solubility (mole fraction) value has been reported?
-- reply 0.521

----------
Settings: in isopropanol, 278.15 K
Measured parameter: solubility (mole fraction)
Reply with just the number.

-- ask Could you share which solubility (mole fraction) value was measured for CC(=O)c1c(C)cc(C(C)(C)C)cc1C ?
-- reply 0.101

----------
Settings: in ethanol, 273.15 K
Measured parameter: solubility (mole fraction)
Please reply with the value in numeric form only.

-- ask Would you kindly share the measured solubility (mole fraction) for CC(=O)c1c(C)cc(C(C)(C)C)cc1C ?
-- reply 0.0701

Data provenance is BigSolDB 2.1.
